Entry source: paper PMC5412445

# Test system: zebrafish larvae
# test: ZeGlobalTox neurotoxicity evaluation (locomotion, light/dark trial)
# Type: in vivo, zebrafish (Danio rerio)
# recorded_conditions: 120 hpf, drug from 96 hpf at NOEC (MPTP 100 µM, paracetamol 2600 µM)
Structures can show the parent of a compound that is named as a salt.
endpoint: Motility (total distance moved) compared to DMSO

Examples with their reported Motility (total distance moved) compared to DMSO follow.
>  <compound>
CN1CCN(CCCN2c3ccccc3Sc3ccc(C(F)(F)F)cc32)CC1 [Trifluoperazine HCL, trifluoperazine hydrochloride]

>  <result>
Decreased motility

$$$$
>  <compound>
CC[C@]1(O)C[C@H]2CN(CCc3c([nH]c4ccccc34)[C@@](C(=O)OC)(c3cc4c(cc3OC)N(C=O)[C@H]3[C@@](O)(C(=O)OC)[C@H](OC(C)=O)[C@]5(CC)C=CCN6CC[C@]43[C@@H]65)C2)C1

>  <result>
increased motility

$$$$
>  <compound>
CC(=O)Nc1ccc(O)cc1

>  <result>
Decreased motility

$$$$
>  <compound>
CC(C)NCC(O)COc1cccc2[nH]ccc12 (stereo not shown)

>  <result>
increased motility

$$$$
>  <compound>
CC(=O)O[C@@]12CO[C@@H]1C[C@H](O)[C@@]1(C)C(=O)[C@H](O)C3=C(C)[C@@H](OC(=O)[C@H](O)[C@@H](NC(=O)OC(C)(C)C)c4ccccc4)C[C@@](O)([C@@H](OC(=O)c4ccccc4)[C@H]21)C3(C)C

>  <result>
increased motility

$$$$
>  <compound>
CNCC(O)c1ccc(O)c(O)c1.Cl (racemic) [(±)-Epinephrine HCL, (±)-epinephrine hydrochloride]

>  <result>
increased motility

$$$$

Attention now shifts to the item below.
Input: Give its Motility (total distance moved) compared to DMSO value. Item: `CN1CC=C(c2ccccc2)CC1`
Output: Decreased motility
